Reported inhibition of growth at 1 µg/mL values for the following compounds.
System: Botryosphaeria berengeriana
Assay: Fungicidal activity against Botryosphaeria berengeriana assessed as growth inhibition at 1 ug/mL
Type: functional
Conditions: read-out: GI
Answer format: numeric, % implied, no suffix.

Q: Any idea what its inhibition of growth at 1 µg/mL is? The compound is CC(O)(Cn1cncn1)c1ccc(Oc2ccc(F)cc2)cc1Cl (stereo not given)
A: 48.7

Q: // lookup inhibition of growth at 1 µg/mL for CNCC(O)(Cn1cncn1)c1ccc(Oc2ccc(F)cc2)cc1Cl (stereo not given)
A: 74.6

Q: What measured inhibition of growth at 1 µg/mL goes with CC1COC(Cn2cncn2)(c2ccc(Oc3ccc(Cl)cc3)cc2Cl)O1 (stereo not given) ?
A: 69.7

Q: Using the record for `OC(Cn1cncn1)(Cn1cncn1)c1ccc(Oc2ccc(F)cc2)cc1Cl` , report its inhibition of growth at 1 µg/mL.
A: 49.3

# input for lookup
Q: For the compound shown here, CN(C)CC(O)(Cn1cncn1)c1ccc(Oc2ccc(Cl)cc2)cc1Cl (stereo not given) , give the reported inhibition of growth at 1 µg/mL.
A: 27.7

# credit: ChEMBL document CHEMBL3045156
